Field: pIC50. Provide a value for each of the molecules that follow.
system under test: Endothelial PAS domain-containing protein 1 (Homo sapiens) (UniProt Q99814)
test details: HIF-2a and HIF-1a reporter inhibition panel, dose response, selectivity assay for HIF-2a inhibitor project, cell-based, luminescence (AID 651581)
condition summary: HIF-2a, run 2
Please keep in mind that pIC50 is minus log10 of the molar concentration; only the number is needed.

Lookup result for `CCOC(=O)c1cc(-c2csc(-c3ccc(C(C)(C)C)cc3)n2)on1` ; measured pIC50: 5.32

Lookup result for `COc1cccc(NC(=O)c2nc(S(C)(=O)=O)ncc2Cl)c1` ; measured pIC50: 4.95

Lookup result for `Cc1cc(NC(=O)c2ccccc2)c(Cl)cc1N` ; measured pIC50: 5.53

Lookup result for `N#Cc1ccccc1COc1ccc(/C=C/C(=O)O)cc1` ; measured pIC50: 6.39

Lookup result for `CC(=O)Nc1ccc(NC(=O)c2oc3cc(C)c(C)cc3c2C)cc1` ; measured pIC50: 5.78

Lookup result for `CC(=O)Nc1ccc(OS(=O)(=O)c2c(C)cc(C)cc2C)cc1` ; measured pIC50: 4.96

Lookup result for `N#C/C(=C\c1ccccc1)C(=O)N(c1ccccn1)C1CCCCC1` ; measured pIC50: 4.86

Lookup result for `CN(C)c1c([N+](=O)[O-])cc(N2C(=O)C=CC2=O)cc1[N+](=O)[O-]` ; measured pIC50: 5.05

Lookup result for `O=C(Nc1ccc(F)cc1)c1nc(S(=O)(=O)Cc2ccccc2)ncc1Cl` ; measured pIC50: 5.13

Lookup result for `CCOc1ccc(-c2cc(CCCC(=O)Nc3cc(OC)ccc3OC)no2)cc1` ; measured pIC50: 5.78

Lookup result for `CCOC(=O)c1c(C)nn(-c2ccc(NC(=O)c3c(C)noc3C)cc2)c1C` ; measured pIC50: 5.37

Lookup result for `CC(=O)c1ccc(NC(=O)c2cnn3ccccc23)cc1` ; measured pIC50: 5.00

Lookup result for `Cc1nc2cc(-c3ccccc3)nn2c(C)c1CCC(=O)NCc1ccco1` ; measured pIC50: 5.68

Lookup result for `COc1cc(N2C(=O)C=CC2=O)c(OC)cc1Cl` ; measured pIC50: 5.08

Lookup result for `COc1ccc(OCc2cccc(C(=O)O)c2)cc1` ; measured pIC50: 6.10

Lookup result for `O=S(=O)(Nc1cccc2cccnc12)c1ccccc1` ; measured pIC50: 5.49

Lookup result for `CCOc1ccc(C(=O)Nc2cccc(C(=O)O)c2C)cc1Cl` ; measured pIC50: 4.78

Lookup result for `Cn1c(/C=C/c2ccc(Cl)cc2)c([N+](=O)[O-])c(=O)n(C)c1=O` ; measured pIC50: 4.92

Lookup result for `Cc1ccc(NC(=S)NNc2ncc(C(F)(F)F)cc2Cl)cc1` ; measured pIC50: 5.35

====

Field: log10 of IC50. Provide a value for each of the molecules that follow.
system under test: Endothelial PAS domain-containing protein 1 (Homo sapiens)
test details: HIF-2a and HIF-1a reporter inhibition panel, dose response, selectivity assay for HIF-2a inhibitor project, cell-based, luminescence (AID 651581)
condition summary: HIF-2a PANC, run 2
Would you kindly interpret these values as log10 of IC50 expressed in µM?

Lookup result for `Cc1ccoc1C(=O)Nc1ccc(CC(=O)O)cc1` ; measured log10 of IC50: -0.16

Lookup result for `COc1cccc(C(=O)C(C#N)=C(SC)SC)c1` ; measured log10 of IC50: 1.68

Lookup result for `NC(=O)COC(=O)CCCSc1nc2ccccc2s1` ; measured log10 of IC50: 1.91

Lookup result for `Cc1csc(NC(=O)c2cn3ccccc3n2)n1` ; measured log10 of IC50: 1.17

Lookup result for `N#Cc1ccccc1COc1ccc(/C=C/C(=O)O)cc1` ; measured log10 of IC50: -0.51

Source: PubChem BioAssay AID651581
